Measured values drawn from PubChem BioAssay AID1963431 for this set.

Reported values of viability, T/C for individual entries
Tested on: Rh18 complex spheroid viability, percent test/control
ASSAY: Anticancer human tumor Rh18 cell line growth inhibition [Asc];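 note: spheroids exposed to compound for 7 days; 100% = DMSO vehicle control wells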
COND: second compound 0.1 µM; first compound 0.3 µM; hits give low values

[
  {
    "COMPOUND": "CCN1C(C(=O)NC23CCC(C(=O)O)(CC2)CC3)C(c2cccc(Cl)c2F)C2(C(=O)Nc3cc(Cl)ccc32)C12CCCCC2 (stereo not drawn) + CNC(C)C(=O)NC1CN(S(=O)(=O)c2cccc(S(=O)(=O)N3CCC4CCC(C(=O)NC(c5ccccc5)c5ccccc5)N4C(=O)C(NC(=O)C(C)NC)C3)c2)CCC2CCC(C(=O)NC(c3ccccc3)c3ccccc3)N2C1=O",
    "viability, T/C, %": 13.5
  },
  {
    "COMPOUND": "CCN1C(C(=O)NC23CCC(C(=O)O)(CC2)CC3)C(c2cccc(Cl)c2F)C2(C(=O)Nc3cc(Cl)ccc32)C12CCCCC2 (stereo not drawn) + Cc1c(S(C)(=O)=O)c(-c2cc(F)cc(N3CCN(c4ccc(NS(=O)(=O)c5ccc(NC(CCN6CCC(C(=O)OCCCP(=O)(O)O)CC6)CSc6ccccc6)c(S(=O)(=O)C(F)(F)F)c5)cc4)CC3)c2)c(-c2ccc(Cl)cc2)n1C(C)C",
    "viability, T/C, %": 6.82
  },
  {
    "COMPOUND": "NC(=O)C(=Cn1cnc(-c2cc(C(F)(F)F)cc(C(F)(F)F)c2)n1)c1cncnc1 + CNC(C)C(=O)NC1CN(S(=O)(=O)c2cccc(S(=O)(=O)N3CCC4CCC(C(=O)NC(c5ccccc5)c5ccccc5)N4C(=O)C(NC(=O)C(C)NC)C3)c2)CCC2CCC(C(=O)NC(c3ccccc3)c3ccccc3)N2C1=O",
    "viability, T/C, %": 27.7
  }
]

----------
The compounds listed here are annotated with their viability, T/C.
System: Rh18 complex spheroid viability, percent test/control
ASSAY: Anticancer human tumor Rh18 cell line growth inhibition [Asc];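 note: spheroids exposed to compound for 7 days; 100% = DMSO vehicle control wells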
COND: second compound 0.0949 µM; first compound 0.316 µM; hits give low values

[
  {
    "COMPOUND": "C=C(F)C(=O)N1CCN(c2nc(OCC3CCCN3C)nc3c2CCN(c2cccc4cccc(Cl)c24)C3)CC1CC#N (stereo not drawn) + CCN1C(C(=O)NC23CCC(C(=O)O)(CC2)CC3)C(c2cccc(Cl)c2F)C2(C(=O)Nc3cc(Cl)ccc32)C12CCCCC2",
    "viability, T/C": "17.7%"
  },
  {
    "COMPOUND": "CCN1CCN(Cc2ccc(Nc3ncc(F)c(-c4cc(F)c5nc(C)n(C(C)C)c5c4)n3)nc2)CC1 + CCN1C(C(=O)NC23CCC(C(=O)O)(CC2)CC3)C(c2cccc(Cl)c2F)C2(C(=O)Nc3cc(Cl)ccc32)C12CCCCC2",
    "viability, T/C": "34.6%"
  },
  {
    "COMPOUND": "O=C(c1cc(Cc2n[nH]c(=O)c3ccccc23)ccc1F)N1CCN(C(=O)C2CC2)CC1 + CCN1C(C(=O)NC23CCC(C(=O)O)(CC2)CC3)C(c2cccc(Cl)c2F)C2(C(=O)Nc3cc(Cl)ccc32)C12CCCCC2",
    "viability, T/C": "28.7%"
  },
  {
    "COMPOUND": "CNC(C)C(=O)NC1CN(S(=O)(=O)c2cccc(S(=O)(=O)N3CCC4CCC(C(=O)NC(c5ccccc5)c5ccccc5)N4C(=O)C(NC(=O)C(C)NC)C3)c2)CCC2CCC(C(=O)NC(c3ccccc3)c3ccccc3)N2C1=O (stereo not drawn) + CCN1C(C(=O)NC23CCC(C(=O)O)(CC2)CC3)C(c2cccc(Cl)c2F)C2(C(=O)Nc3cc(Cl)ccc32)C12CCCCC2",
    "viability, T/C": "13.7%"
  },
  {
    "COMPOUND": "O=C(c1ccc(F)c(F)c1Nc1ccc(I)cc1F)N1CC(O)([C@@H]2CCCCN2)C1 + CCN1C(C(=O)NC23CCC(C(=O)O)(CC2)CC3)C(c2cccc(Cl)c2F)C2(C(=O)Nc3cc(Cl)ccc32)C12CCCCC2",
    "viability, T/C": "7.94%"
  },
  {
    "COMPOUND": "COc1c(OCCCN2CCOCC2)ccc2c3n(c(=NC(=O)c4cnc(N)nc4)nc12)CCN3 + CCN1C(C(=O)NC23CCC(C(=O)O)(CC2)CC3)C(c2cccc(Cl)c2F)C2(C(=O)Nc3cc(Cl)ccc32)C12CCCCC2",
    "viability, T/C": "1.95%"
  },
  {
    "COMPOUND": "C=CC(=O)N1CCN(c2nc(=O)n(-c3c(C)ccnc3C(C)C)c3nc(-c4c(O)cccc4F)c(F)cc23)C(C)C1 (stereo not drawn) + CCN1C(C(=O)NC23CCC(C(=O)O)(CC2)CC3)C(c2cccc(Cl)c2F)C2(C(=O)Nc3cc(Cl)ccc32)C12CCCCC2",
    "viability, T/C": "24.4%"
  },
  {
    "COMPOUND": "C#Cc1c(F)ccc2cc(O)cc(-c3ncc4c(N5CC6CCC(C5)N6)nc(OCC56CCCN5CC(F)C6)nc4c3F)c12 (stereo not drawn) + CCN1C(C(=O)NC23CCC(C(=O)O)(CC2)CC3)C(c2cccc(Cl)c2F)C2(C(=O)Nc3cc(Cl)ccc32)C12CCCCC2",
    "viability, T/C": "22.1%"
  }
]

----------
System: Rh18 complex spheroid viability, percent test/control
ASSAY: Anticancer human tumor Rh18 cell line growth inhibition [Asc];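 note: spheroids exposed to compound for 7 days; 100% = DMSO vehicle control wells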
COND: second compound 1 µM; first compound 0.0949 µM; hits give low values
Text: Multicellular complex tumor spheroid response to apoptosis pathway targeting inhibitors Alrizomadlin, Pelcitoclax, and Dasminapant in combination with a variety of drugs and investigational agents in selected tumor cell lines […] Compounds. […] If the clinical Cmax for an agent had not been determined, the highest concentration tested was 10 microM. […]

[
  {
    "MOLECULE": "Cc1nc(N2CCC3(CC2)COC(C)C3N)c(CO)nc1Sc1ccnc(N)c1Cl (centres undefined) + CNC(C)C(=O)NC1CN(S(=O)(=O)c2cccc(S(=O)(=O)N3CCC4CCC(C(=O)NC(c5ccccc5)c5ccccc5)N4C(=O)C(NC(=O)C(C)NC)C3)c2)CCC2CCC(C(=O)NC(c3ccccc3)c3ccccc3)N2C1=O",
    "STUDY TARGET": "Rh18 complex spheroid viability, percent test/control",
    "viability, T/C, %": 22
  },
  {
    "MOLECULE": "CCN1C(C(=O)NC23CCC(C(=O)O)(CC2)CC3)C(c2cccc(Cl)c2F)C2(C(=O)Nc3cc(Cl)ccc32)C12CCCCC2 (centres undefined) + Cc1c(S(C)(=O)=O)c(-c2cc(F)cc(N3CCN(c4ccc(NS(=O)(=O)c5ccc(NC(CCN6CCC(C(=O)OCCCP(=O)(O)O)CC6)CSc6ccccc6)c(S(=O)(=O)C(F)(F)F)c5)cc4)CC3)c2)c(-c2ccc(Cl)cc2)n1C(C)C",
    "STUDY TARGET": "Rh18 complex spheroid viability, percent test/control",
    "viability, T/C, %": 5.21
  },
  {
    "MOLECULE": "NC(=O)C(=Cn1cnc(-c2cc(C(F)(F)F)cc(C(F)(F)F)c2)n1)c1cncnc1 + CNC(C)C(=O)NC1CN(S(=O)(=O)c2cccc(S(=O)(=O)N3CCC4CCC(C(=O)NC(c5ccccc5)c5ccccc5)N4C(=O)C(NC(=O)C(C)NC)C3)c2)CCC2CCC(C(=O)NC(c3ccccc3)c3ccccc3)N2C1=O",
    "STUDY TARGET": "Rh18 complex spheroid viability, percent test/control",
    "viability, T/C, %": 34.3
  },
  {
    "MOLECULE": "Cc1nc(N2CCC3(CC2)COC(C)C3N)c(CO)nc1Sc1ccnc(N)c1Cl (centres undefined) + Cc1c(S(C)(=O)=O)c(-c2cc(F)cc(N3CCN(c4ccc(NS(=O)(=O)c5ccc(NC(CCN6CCC(C(=O)OCCCP(=O)(O)O)CC6)CSc6ccccc6)c(S(=O)(=O)C(F)(F)F)c5)cc4)CC3)c2)c(-c2ccc(Cl)cc2)n1C(C)C",
    "STUDY TARGET": "Rh18 complex spheroid viability, percent test/control",
    "viability, T/C, %": 6.81
  }
]

----------
viability, T/C values for the compounds below.
System: Rh18 complex spheroid viability, percent test/control
ASSAY: Anticancer human tumor Rh18 cell line growth inhibition [Asc];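 note: spheroids exposed to compound for 7 days; 100% = DMSO vehicle control wells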
COND: second compound 0.03 µM; first compound 10 µM; hits give low values

[
  {
    "COMPOUND": "C=CC(=O)N1CCN(c2nc(=O)n(-c3c(C)ccnc3C(C)C)c3nc(-c4c(O)cccc4F)c(F)cc23)C(C)C1 (centres undefined) + CCN1C(C(=O)NC23CCC(C(=O)O)(CC2)CC3)C(c2cccc(Cl)c2F)C2(C(=O)Nc3cc(Cl)ccc32)C12CCCCC2",
    "STUDY TARGET": "Rh18 complex spheroid viability, percent test/control",
    "READOUT UNIT": "%",
    "viability, T/C": 60.7
  },
  {
    "COMPOUND": "O=C(c1cc(Cc2n[nH]c(=O)c3ccccc23)ccc1F)N1CCN(C(=O)C2CC2)CC1 + CCN1C(C(=O)NC23CCC(C(=O)O)(CC2)CC3)C(c2cccc(Cl)c2F)C2(C(=O)Nc3cc(Cl)ccc32)C12CCCCC2",
    "STUDY TARGET": "Rh18 complex spheroid viability, percent test/control",
    "READOUT UNIT": "%",
    "viability, T/C": 46.3
  },
  {
    "COMPOUND": "C=C(F)C(=O)N1CCN(c2nc(OCC3CCCN3C)nc3c2CCN(c2cccc4cccc(Cl)c24)C3)CC1CC#N (centres undefined) + CCN1C(C(=O)NC23CCC(C(=O)O)(CC2)CC3)C(c2cccc(Cl)c2F)C2(C(=O)Nc3cc(Cl)ccc32)C12CCCCC2",
    "STUDY TARGET": "Rh18 complex spheroid viability, percent test/control",
    "READOUT UNIT": "%",
    "viability, T/C": 0.2
  },
  {
    "COMPOUND": "C#Cc1c(F)ccc2cc(O)cc(-c3ncc4c(N5CC6CCC(C5)N6)nc(OCC56CCCN5CC(F)C6)nc4c3F)c12 (centres undefined) + CCN1C(C(=O)NC23CCC(C(=O)O)(CC2)CC3)C(c2cccc(Cl)c2F)C2(C(=O)Nc3cc(Cl)ccc32)C12CCCCC2",
    "STUDY TARGET": "Rh18 complex spheroid viability, percent test/control",
    "READOUT UNIT": "%",
    "viability, T/C": 46.6
  }
]
